Target: T1, human MSLN-R2-his protein (human, UniProt Q13421 391-486)
T1 construct: it is put last here; also called human MSLN-R2 protein; hMSLN-R2-his; not shown: His tag
T1 sequence (Q13421 other isoform, or with tags, fused parts or gaps): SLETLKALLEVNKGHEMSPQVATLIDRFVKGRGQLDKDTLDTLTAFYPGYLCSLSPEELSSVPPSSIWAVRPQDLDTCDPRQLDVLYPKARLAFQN
Assay: ELISA on coated antigen, antibody 0.02 nM
assay.metric: OD450 (OD)
Write the value in OD as a bare number.

Example cases with answers are listed next.
>>> numeric_result("S009-F7.33.24 (antibody, human IgG1, kappa, V domains shown, Human-murine chimeric antibody, human IgG1 heavy and kappa light constant regions) VH: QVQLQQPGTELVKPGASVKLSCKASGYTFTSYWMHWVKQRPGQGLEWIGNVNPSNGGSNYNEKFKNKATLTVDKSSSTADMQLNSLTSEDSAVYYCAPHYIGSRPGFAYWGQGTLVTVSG VL: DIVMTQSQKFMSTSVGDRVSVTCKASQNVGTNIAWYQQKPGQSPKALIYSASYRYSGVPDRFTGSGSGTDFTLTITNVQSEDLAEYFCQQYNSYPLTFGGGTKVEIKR")
0.06
>>> numeric_result("S009-F7.53.2 (antibody, human IgG1, kappa, V domains shown, Human-murine chimeric antibody, human IgG1 heavy and kappa light constant regions) VH: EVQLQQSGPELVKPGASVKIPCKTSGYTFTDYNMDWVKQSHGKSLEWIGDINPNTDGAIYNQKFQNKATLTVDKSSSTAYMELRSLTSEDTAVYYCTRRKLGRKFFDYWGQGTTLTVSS VL: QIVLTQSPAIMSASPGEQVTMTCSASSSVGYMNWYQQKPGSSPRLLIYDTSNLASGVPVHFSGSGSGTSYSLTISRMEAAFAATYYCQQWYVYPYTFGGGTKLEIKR")
0.05

Exam item: Item S009-F7.6.17 (antibody, human IgG1, kappa, V domains shown, Human-murine chimeric antibody, human IgG1 heavy and kappa light constant regions) VH: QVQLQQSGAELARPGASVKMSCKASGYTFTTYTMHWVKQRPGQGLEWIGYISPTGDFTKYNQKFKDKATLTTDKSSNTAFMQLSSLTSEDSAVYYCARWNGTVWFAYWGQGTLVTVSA VL: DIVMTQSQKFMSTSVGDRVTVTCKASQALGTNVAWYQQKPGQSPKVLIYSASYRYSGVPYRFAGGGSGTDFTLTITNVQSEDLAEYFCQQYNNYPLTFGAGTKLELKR : provide OD450
Marked response: 0.05
